TARGET: T1, human IL-17A (human, UniProt Q16552 24-155)
T1 construct: secreted form (GenBank U32659) expressed in Hek293 with C-terminal 6-His; also called hIL-17A; IL-17A-6HIS
T1 sequence (Q16552 other isoform, or with tags, fused parts or gaps): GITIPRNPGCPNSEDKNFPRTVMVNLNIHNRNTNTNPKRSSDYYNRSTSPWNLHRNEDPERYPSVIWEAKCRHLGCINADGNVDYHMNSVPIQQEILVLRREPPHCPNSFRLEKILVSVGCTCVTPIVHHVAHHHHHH
METHOD_NOTES: SPR, IL-17A-Nanobody complex over captured IL-17RA
Measured % Biacore binding (IL-17A-NB)-IL-17RA values are reported for all entries that follow.
MEASURE_NAME: % Biacore binding (IL-17A-NB)-IL-17RA (%)

binder="13E05 (VHH, Class 4) VHH: EVQLVESGGGKVQAGDSLTLSCVASGGTFSNYAAWFRQAPGKDRRELVVSIFRTGSITYTADSVKGRFTASRVNTKNTVYLQMNSLKPEDTAVYYCASAYNPGVGYDYWGQGTQVTVSS" reported_result=0.54
binder="11A06 (VHH, Class 2) VHH: EVQLVESGGGLVQPGESLRLSCKASGFSLDYYALGWFRQAPGKEREGISCITSSDASAYYTDSVKGRFTISRDNSKNTVYLQMNSLKTEDTAIYYCAAALLTCSSYYDAYTYWGQGTQVTVSS" reported_result=-0.35
binder="03C07 (VHH, Class 2) VHH: EVQLVESGGGLVQAGGSLRLSCAASGFTFDDYAIGWFRQAPGKEREAVSCFSSSDGSIYYADSVKGRFTISSDNAKNTVYLQMNSLKPEDTAVYYCAGGGGSYYYTQLNYCYDMDYWGKGTQVTVSS" reported_result=-0.08
binder="01A01 (VHH, Class 4) VHH: EVQLVESGGGLVQAGGSLRLSCAASGFTFDDYDIGWFRQAPGKEREGVSCFTSSDGRTFYADSVKGRFTVSADNAKNTVYLQMNSLEPEDTAVYFCAAVNTFDESAYAAFACYDVVRWGQGTQVTVSS" reported_result=-1.04
binder="17C01 (VHH, Class 4) VHH: EVQLVESGGRLVQAGGSLRLPCAASGRTFTSYPMGWFRQAPGKEREFVAAISMSGDDAAYADFVRGRFTISRDDARNTVYLHMTSLKPEDTAVYYCAARTSYDGTYDYIDDYSYWGQGTQVTVSS" reported_result=-2.01
binder="13B05 (VHH, Class 4) VHH: EVQLVESGGRLVQAGGSLRLSCAASGRTFTSYPMGWFRQAPGKEREFVAAISMSGDDTAYTDFVRGRFTISRDDARNTVYLHMTSLKPEDTAVYYCAARTSYDGTYDYIDDYSYWGQGTQVTVSS" reported_result=-0.89
binder="02A08 (VHH, Class 2) VHH: EVQLVESGGGVVQPGGSLRLSCADSERSFSFNAMGWFRQAPGKEREFVAAISATGDDTYYADSVKGRFAISRDTARNTVYLQMNSLKPEDTAVYYCGARVNFDGTVSYTNDYAYWGQGTQVTVSS" reported_result=0.46
binder="13E02 (VHH, Class 4; also called IL17MS13E02) VHH: EVQLVESGGGLVQAGGSLRLSCAASGRTYDAMGWLRQAPGKEREFVAAISGSGDDTYYADSVKGRFTISKDNAGITMYLQMNSLKPEDTAVYYCATRRGLYYVWDSNDYENWGQGTQVTVSS" reported_result=-1.04
